Provide the recorded relative integration efficiency (log2) for the entries that follow.
Test system: VchCAST RNA-guided transposition machinery (E. coli BL21(DE3) host, lacZ target)
Assay: relative integration efficiency (T-LR orientation) vs wild-type transposon end (log2 (normalized fold change)); transposon end mutated: right end (5 bp flank + 75 bp right end); higher = more efficient transposition
Give bare numbers.

Worked cases, answers included:
ACATTTGTTGATACAACCATAATTACATAATTACACCCATAAATTGATAATTATCACACCCATAAATTGATATTGCCTCTGATCATAGTCAGACCAACATTGCTACGACCCGTATTCGCACCGACAC : -2.85
ACATTTGTTGATACAACCATAAAATGATAATTACACCCATAAATTGATAATTATCACAAACATAAATTGATATTGCCTCTGATCATAGTCAGACCAACATTGCTACGACCCGTATTCGCACCGACAC : 0.898
ACATTTGTAGAAAAAACCATACGTTGATTTTACGAAACCATACGCTGAAATAATCACACCCATAAATTGATATTGCCTCTGATCATAGTCAGACCAACATTGCTACGACCCGTATTCGCACCGACAC : -5.68
ACATTTGTTGATACAACCATATATTGATATCTCCAACCATATATTGATATCTCTCACAACCATAAAGTGATATTTACTCTGATCATAGTCAGACCAACATTGCTACGACCCGTATTCGCACCGACAC : 0.0811

### Prompt Query relative integration efficiency (log2) on VchCAST RNA-guided transposition machinery (E. coli BL21(DE3) host, lacZ target) for `ACATTTGTTTATACAACCATAAAATGATAATTACACCCATAAATTCATAATTATCACACCCAATTTAACTATAACGCTCTGATCATAGTCAGACCAACATTGCTACGACCCGTATTCGCACCGACAC`
### Response -0.939

###

Provide the recorded relative integration efficiency (log2) for the entries that follow.
Test system: VchCAST RNA-guided transposition machinery (E. coli BL21(DE3) host, lacZ target)
Assay: relative integration efficiency (T-LR orientation) vs wild-type transposon end (log2 (normalized fold change)); transposon end mutated: left end; higher = more efficient transposition
One number for each entry.

Worked cases, answers included:
AATGTTGTTGATGCAACCATAAGTTGATATTTTATAATTATTTATAATCAGCAACTTAACCACAAAACAACCATAAAGTGATATTTAACAAAAGTTGGTATTCAACTATAAAATGTGAATCGAGTATTTCAGCAAAACTACTGCAGTAAGAA : -1.03
TTTTGTGTTGAAACAACCATAAAGTGATAACAACGAATCAATTAAAATCATAGGCTTAATCGAAAAACAACCATATCTTGATATCGCACAAAACAACCATAAGTTGATATTTTGGTGAAAAGGATATTCCAACCTTCATAGTTTAGTAAGAA : -0.749

Below are 2 sequences. Give each one its relative integration efficiency (log2).
1. AATGTTGTTGATGCAACCATAAAGTGATATTTAATAATTATTTATAATCAGCAACTTAACCACAAAACAACCATATATTGATATCTCACAAAAACCAACGCCCTGTCGCGGGCTGTGAATCGAGTATTTCAGCAAAACTACTGCAGTAAGAA
2. TTTTGTGTTGAAACAACCATAAAGTGATAACAACGAATCAATTAAAATCATAGGCTTAATCGAAAAACAACCATATATTGATATCTCATAAAACAACCATAAGTTGATATTTTGGTGAAAAGGATATTCCAACCTTCATAGTTTAGTAAGAA

### Response
-1.71
0.0938
